Ref: patent US20170216240A1

# experimentalTarget: Kv7.1 (Homo sapiens, UniProt P51787)
# assay: G(V) shift of Kv7.1 expressed in Xenopus laevis oocytes, two-electrode voltage-clamp
# Assay type: cell-based
# experimentalContext: Kv7.1; pH 9.0; read-out: C0.5 (concentration-response)
endpointName: EC50
Kindly write the number and append the unit.

Record CC/C=C\C/C=C\C/C=C\C/C=C\C/C=C\C/C=C\CCC(=O)O : what is its EC50 with Kv7.1 (Homo sapiens, UniProt P51787)? 10 µM

----------
# experimentalTarget: Kv7.1 (Homo sapiens)
# assay: G(V) shift of Kv7.1 expressed in Xenopus laevis oocytes, two-electrode voltage-clamp
# Assay type: cell-based
# experimentalContext: Kv7.1; pH 7.4; read-out: c0.5, concentration causing 50% of the maximum shift
endpointName: EC50

Return reported EC50; argument: CC/C=C\C/C=C\C/C=C\C/C=C\C/C=C\C/C=C\CCC(=O)O 50 µM
